Test system: Saccharomyces cerevisiae;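 note: PSI derived as read-weighted mean over the 8 sorting bins, only variants exceeding 10 total reads kept, mCherry placed adjacent to the peptide and sfGFP distal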
assayProcedure: protein stability index of tFT-peptide fusion in wild type (PSI (0-1 scale)); higher = more stable (slower turnover)
conditionParameters: genetic background: wild type
Label true (1) when protein stability index is at or above 0.3; otherwise label false (0).

[Q] Evaluate "KKHKKGSKQKIN" : protein stability index at minimum 0.3?
[A] false (0)

[Q] Given the entry "KKHKGGQKQKIN" , answer whether its protein stability index meets or surpasses 0.3.
[A] false (0)

[Q] State whether the measured protein stability index reaches 0.3, counting equality as reaching it, for "GLYMCSVGCWFE"
[A] true (1)

[Q] Check the entry "AITLPMCPLLSR" : does protein stability index equal or exceed 0.3?
[A] true (1)

[Q] Could you tell me if the measured protein stability index of "LVVYLSCVACIA" reaches 0.3 or more?
[A] false (0)

[Q] Entry "RLIQPWPVQFLN" : is its protein stability index no less than 0.3?
[A] false (0)

[Q] Reported protein stability index at or above 0.3? "RLIQPLPVQFLNN"
[A] true (1)

[Q] Reported protein stability index at or above 0.3? "RVTRLDAIYFRT"
[A] true (1)

[Q] Is it the case that "RVTRLAAIYFRI" has protein stability index reaching or exceeding 0.3?
[A] false (0)

[Q] Say whether "RETRLDAIYFRI" shows protein stability index of 0.3 or more.
[A] true (1)

[Q] Form field: protein stability index at least 0.3? Entry: "ARWREGLWRGAS"
[A] true (1)

[Q] Check the entry "LKILRQKMNHQNV" : does protein stability index equal or exceed 0.3?
[A] true (1)

[Q] Check the entry "RSLRPLLPLYFR" : does protein stability index equal or exceed 0.3?
[A] true (1)
